- Measured On: DCN1 protein (Homo sapiens (Human), UniProt Q96GG9)
- Sequence (Q96GG9 whole entry): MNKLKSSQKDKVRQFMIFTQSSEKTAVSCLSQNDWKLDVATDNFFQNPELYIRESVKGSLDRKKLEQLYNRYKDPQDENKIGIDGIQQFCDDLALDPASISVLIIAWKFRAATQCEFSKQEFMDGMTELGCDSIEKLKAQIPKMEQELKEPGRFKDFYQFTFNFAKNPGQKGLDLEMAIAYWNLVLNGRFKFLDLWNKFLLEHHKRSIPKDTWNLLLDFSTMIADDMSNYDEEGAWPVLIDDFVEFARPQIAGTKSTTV
- Measurement Description: Intact protein MS analysis with the RapidFire-TOF system (covalent adduct formation)
- Assay type: binding
- Test Context: 400 nM DCN1, incubated at room temperature for 3 hours
Readout Kind: Emax

Compound	Readout Kind	Measurement
CCN1CC=C(C(=O)Nc2cccc([C@@H]3c4c(C)nn(-c5ccccc5)c4N(CC)C(=O)[C@H]3NC(=O)c3nccc(C(F)(F)F)n3)c2)C1	Emax	80 to 100%
C#CC(=O)Nc1ccccc1[C@H]1c2cnn(-c3ccccc3)c2N(CC)C(=O)[C@@H]1NC(=O)c1cccc(C(F)(F)F)c1 (racemic)	Emax	80 to 100%
C=C(CN1CCOCC1)C(=O)Nc1cccc([C@@H]2c3c(C)nn(-c4ccccc4)c3N(CC)C(=O)[C@H]2NC(=O)c2cccc(C(F)(F)F)c2)c1	Emax	80 to 100%

The values you see were collected from patent US12435087B2.
